# measuredTarget: cKit (Homo sapiens, UniProt P10721)
# Sequence (P10721 26-976): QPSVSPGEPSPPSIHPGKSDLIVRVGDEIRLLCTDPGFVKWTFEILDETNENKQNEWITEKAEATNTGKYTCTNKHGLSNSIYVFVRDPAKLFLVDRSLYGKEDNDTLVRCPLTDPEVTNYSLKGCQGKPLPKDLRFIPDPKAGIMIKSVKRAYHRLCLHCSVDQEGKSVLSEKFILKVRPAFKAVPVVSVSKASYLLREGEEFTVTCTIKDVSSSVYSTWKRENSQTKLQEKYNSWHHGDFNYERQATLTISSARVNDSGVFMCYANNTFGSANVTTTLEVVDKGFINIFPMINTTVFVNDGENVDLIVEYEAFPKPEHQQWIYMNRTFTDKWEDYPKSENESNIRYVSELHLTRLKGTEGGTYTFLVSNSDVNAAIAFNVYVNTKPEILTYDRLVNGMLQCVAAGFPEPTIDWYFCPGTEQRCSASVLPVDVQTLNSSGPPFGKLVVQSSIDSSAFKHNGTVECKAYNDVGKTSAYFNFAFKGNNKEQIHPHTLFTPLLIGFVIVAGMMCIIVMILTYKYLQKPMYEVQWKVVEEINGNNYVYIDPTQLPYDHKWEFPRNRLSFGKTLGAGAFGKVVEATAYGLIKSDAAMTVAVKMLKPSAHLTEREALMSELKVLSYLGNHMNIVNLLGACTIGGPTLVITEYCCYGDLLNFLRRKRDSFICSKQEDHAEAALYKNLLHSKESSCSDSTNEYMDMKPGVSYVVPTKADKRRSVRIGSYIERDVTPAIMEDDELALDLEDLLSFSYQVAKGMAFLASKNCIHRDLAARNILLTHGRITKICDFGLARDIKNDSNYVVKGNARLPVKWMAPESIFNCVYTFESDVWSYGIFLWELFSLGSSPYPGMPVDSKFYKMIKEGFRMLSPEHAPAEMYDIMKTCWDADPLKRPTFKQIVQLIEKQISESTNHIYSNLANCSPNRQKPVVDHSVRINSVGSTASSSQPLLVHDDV
measurementName: IC50

**Q:** Endpoint output: IC50 of C[C@H]1CN(C(=O)CC#N)[C@]12CCN(c1ncnc3[nH]ccc13)C2 . Value?
**A:** > 1000 nM

* * *

# measuredTarget: UniProt:P23443
# Sequence (P23443 whole entry): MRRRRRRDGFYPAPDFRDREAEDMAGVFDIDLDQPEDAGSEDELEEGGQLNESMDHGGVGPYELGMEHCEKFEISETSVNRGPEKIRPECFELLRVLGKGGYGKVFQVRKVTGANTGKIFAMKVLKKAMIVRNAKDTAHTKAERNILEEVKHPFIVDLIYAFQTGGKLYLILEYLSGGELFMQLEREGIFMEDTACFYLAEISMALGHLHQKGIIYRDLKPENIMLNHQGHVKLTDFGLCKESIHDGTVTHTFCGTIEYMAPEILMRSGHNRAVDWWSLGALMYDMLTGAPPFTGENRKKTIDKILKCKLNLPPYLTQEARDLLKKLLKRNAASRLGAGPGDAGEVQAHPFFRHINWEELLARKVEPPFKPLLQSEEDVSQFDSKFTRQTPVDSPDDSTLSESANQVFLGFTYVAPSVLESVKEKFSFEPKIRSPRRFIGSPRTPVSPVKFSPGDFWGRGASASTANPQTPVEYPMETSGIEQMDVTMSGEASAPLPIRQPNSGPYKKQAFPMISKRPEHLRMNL
measurementName: IC50

**Q:** Endpoint output: IC50 of C[C@H]1CN(C(=O)CC#N)[C@]12CCN(c1ncnc3[nH]ccc13)C2 . Value?
**A:** > 1000 nM

* * *

# measuredTarget: IKKβ (Homo sapiens, UniProt O14920)
# Construct: purchased Millipore Co. Ltd. (KinaseProfiler service)
# Sequence (O14920 whole entry, species assumed): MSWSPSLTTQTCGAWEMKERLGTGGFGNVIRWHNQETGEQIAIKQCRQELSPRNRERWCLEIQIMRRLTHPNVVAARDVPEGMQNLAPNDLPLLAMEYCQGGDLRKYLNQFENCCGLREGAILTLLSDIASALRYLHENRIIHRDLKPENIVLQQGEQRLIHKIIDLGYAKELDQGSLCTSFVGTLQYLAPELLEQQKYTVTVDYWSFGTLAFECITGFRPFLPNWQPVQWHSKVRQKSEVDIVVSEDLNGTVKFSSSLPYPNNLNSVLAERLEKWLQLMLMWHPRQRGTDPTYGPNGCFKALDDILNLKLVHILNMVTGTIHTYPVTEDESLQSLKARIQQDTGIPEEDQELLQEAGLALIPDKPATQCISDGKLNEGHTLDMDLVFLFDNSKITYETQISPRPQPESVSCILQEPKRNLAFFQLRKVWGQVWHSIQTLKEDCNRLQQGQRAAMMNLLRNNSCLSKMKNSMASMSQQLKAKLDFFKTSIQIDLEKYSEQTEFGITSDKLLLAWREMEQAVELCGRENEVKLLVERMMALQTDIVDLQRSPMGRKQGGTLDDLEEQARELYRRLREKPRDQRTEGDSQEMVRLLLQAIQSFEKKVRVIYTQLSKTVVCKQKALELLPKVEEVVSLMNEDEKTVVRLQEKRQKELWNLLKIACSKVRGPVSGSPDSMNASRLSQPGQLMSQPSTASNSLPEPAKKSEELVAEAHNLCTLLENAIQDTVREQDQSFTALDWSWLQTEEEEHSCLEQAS
# testProtocol: KinaseProfiler selectivity: IKKβ
# Format: biochemical
pIC50: −log10 of the molar value.
measurementName: pIC50

**Q:** Endpoint output: pIC50 of C[C@H]1CN(C(=O)CC#N)[C@]12CCN(c1ncnc3[nH]ccc13)C2 [JTE-052] . Value?
**A:** < 6.00
